Cited source for all entries: patent US11946041B2

For each record, write down the corresponding Raw Data.
- ASSAYED_SYSTEM: CCR4 (Homo sapiens)
- Construct: host or cells: CHO-K1
- Sequence (P51679 1-360): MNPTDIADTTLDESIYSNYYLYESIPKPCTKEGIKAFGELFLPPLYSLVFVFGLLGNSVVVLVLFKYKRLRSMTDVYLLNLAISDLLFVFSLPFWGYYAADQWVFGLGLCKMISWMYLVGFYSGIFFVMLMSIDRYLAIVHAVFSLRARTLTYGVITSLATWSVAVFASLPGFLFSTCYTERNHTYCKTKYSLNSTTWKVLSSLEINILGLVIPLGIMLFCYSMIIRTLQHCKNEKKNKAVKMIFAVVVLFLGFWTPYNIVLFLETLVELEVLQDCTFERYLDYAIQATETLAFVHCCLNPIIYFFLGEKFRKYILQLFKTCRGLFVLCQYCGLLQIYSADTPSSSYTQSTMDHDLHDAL
- PROCEDURE_SUMMARY: PathHunter eXpress CCR4 CHO-K1 β-Arrestin GPCR Assay, antagonist format with CCL22
- Assay type: cell-based
- DETAILS: 1 nM CCL22, 0.008 uM
Please give only the number in your answer, with no unit.

# Raw Data of ACQTLCNTAEDIRCA [24-16-00-N001, bicyclic peptide ligand, TBMB scaffold, from CCR4 cell-based selection] = 249215

# Raw Data of ACQLTCLPPPRQPGCA [24-15-00-N001, bicyclic peptide ligand, TATA scaffold, from CCR4 cell-based selection] = 278839

# Raw Data of ACPLMSSVNCTAGCA [24-13-00-N001, bicyclic peptide ligand, TBMB scaffold, from CCR4 cell-based selection] = 210841

====

- ASSAYED_SYSTEM: CCR4 (Homo sapiens)
- Construct: host or cells: CHO-K1
- Sequence (P51679 1-360): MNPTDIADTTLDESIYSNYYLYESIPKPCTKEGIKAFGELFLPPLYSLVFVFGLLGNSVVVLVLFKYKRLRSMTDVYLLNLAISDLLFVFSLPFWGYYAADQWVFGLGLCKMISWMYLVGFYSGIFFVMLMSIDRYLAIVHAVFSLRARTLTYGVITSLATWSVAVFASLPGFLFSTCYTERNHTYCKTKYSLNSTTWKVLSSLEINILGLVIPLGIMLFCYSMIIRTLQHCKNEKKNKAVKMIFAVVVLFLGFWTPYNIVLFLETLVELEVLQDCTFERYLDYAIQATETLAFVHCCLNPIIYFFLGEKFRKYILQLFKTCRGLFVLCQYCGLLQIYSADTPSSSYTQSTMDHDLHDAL
- PROCEDURE_SUMMARY: PathHunter eXpress CCR4 CHO-K1 β-Arrestin GPCR Assay, antagonist format with CCL22
- Type: cell-based
- DETAILS: 1 nM CCL22, 0.2 uM
For each record, write down the corresponding Raw Data.
Please give only the number in your answer, with no unit.

Sample ACQLTCLTPARQPGCA [24-14-00-N001, bicyclic peptide ligand, TATA scaffold, from CCR4 cell-based selection] , system: CCR4 (Homo sapiens). Its Raw Data is 201484

Sample ACLNGCRNTNSQCA [24-11-00-N001, bicyclic peptide ligand, TATA scaffold, from CCR4 cell-based selection] , system: CCR4 (Homo sapiens). Its Raw Data is 136037

Sample ACLSCARHGNQCA [24-12-00-N001, bicyclic peptide ligand, TATA scaffold, from CCR4 cell-based selection] , system: CCR4 (Homo sapiens). Its Raw Data is 196279

Sample ACPLMSSVNCTAGCA [24-13-00-N001, bicyclic peptide ligand, TBMB scaffold, from CCR4 cell-based selection] , system: CCR4 (Homo sapiens). Its Raw Data is 228712

Sample ACQTLCNTAEDIRCA [24-16-00-N001, bicyclic peptide ligand, TBMB scaffold, from CCR4 cell-based selection] , system: CCR4 (Homo sapiens). Its Raw Data is 225038

Sample ACQLTCLPPPRQPGCA [24-15-00-N001, bicyclic peptide ligand, TATA scaffold, from CCR4 cell-based selection] , system: CCR4 (Homo sapiens). Its Raw Data is 233858

Sample ACRAVHSLRCLTTCA [24-17-00-N001, bicyclic peptide ligand, TATA scaffold, from CCR4 cell-based selection] , system: CCR4 (Homo sapiens). Its Raw Data is 246983
